From: PubChem BioAssay (NCI)

The compounds listed here are annotated with their growth.
Test system: HOP-62 NSCLC
Experiment: NCI-60 one-dose screen, 48 h (100 = growth as untreated, 0 = no growth, -100 = all killed)
Conditions: 10 µM unless noted
Compounds without any hit were thinned out: in the full panel of roughly 83,000, 20% have a hit. The source made the active and inactive calls. Rule for the calls: active = growth percent below 10; inactive = the rest.

Param item = "O=C1/C(=C/c2ccc(Cl)cc2)CN(C(=O)C(Cl)Cl)C/C1=C\c1ccc(Cl)cc1" ; retrieve measured growth. -61.5% (active)

Param item = CC(C)C1C2=C(NCCN1C(=O)c1ccncc1)C(C)(C)N(Cc1ccccc1)C2=O (stereo not given) ; retrieve measured growth. 103% (inactive)

Param item = "CS(=O)(=O)c1ccc(-c2nc3ccccc3n2CC(=O)N/N=C/c2ccccc2)cc1" ; retrieve measured growth. 89% (inactive)

Param item = "Cc1ccc(NC(=O)c2cc3ccccc3cc2O)c(C)c1" ; retrieve measured growth. 89.3% (inactive)

Param item = "O=C1/C(=C/c2cccc(Br)c2)COc2ccc(O)cc21" ; retrieve measured growth. 86.6% (inactive)

Param item = "Cc1ccc(O)c(NC(=O)c2cccc(Nc3ccnc(C(F)(F)F)c3)c2)c1" ; retrieve measured growth. 85.6% (inactive)

Param item = "CC(C)Cc1nc(Nc2ccccc2)[nH]c(=O)c1C#N" ; retrieve measured growth. 82.7% (inactive)

###

System: NCI-H23 lung
Assay: NCI-60 one-dose screen, 48 h (100 = growth as untreated, 0 = no growth, -100 = all killed)
Details: 10 µM unless noted
This is part of a sample that, as a whole, favours compounds with a hit. Of some 83,000 tested, about 20% had one in any assay. Activity calls are given as the source filed them. How the source made its calls: active means growth percent below 10; inactive means the rest.
property_name: growth

# smiles_input, reading
data = [
    ("Cc1ccccc1N1CCN(C(=S)c2ccccc2)CC1", "81.3% (inactive)"),
    ("Fc1cccc(-c2nc(-c3c[nH]c4ncccc34)cs2)c1", "64.2% [100 µM] (inactive)"),
    ("Cc1nc([P+](c2ccccc2)(c2ccccc2)c2ccccc2)c(N2CCCCC2)o1", "17.1% (inactive)"),
    ("O=C(Nc1cccnc1Nc1ccccc1)c1cn(Cc2cccc(Oc3ccccc3)c2)nn1", "68.3% (inactive)"),
]

Param item = "CCN(CC)CCn1c2ccc(OC)cc2c2sc3cc(O)ccc3c(=O)c21" ; retrieve measured growth. 23.9% (inactive)

Param item = "COCC(=O)Oc1cc(-c2ccc(C)cc2C)c(OC(=O)COC)c(-c2ccc(C)cc2C)c1" ; retrieve measured growth. 68.8% (inactive)

Param item = "COC(=O)[C@@]1(C)CC[C@]2(C)CC[C@]3(C)C4=CC=C5C(=CC(=O)C(O)=C5C)[C@]4(C)[C@@H](O)C[C@@]3(C)[C@@H]2C1" ; retrieve measured growth. 49.2% (inactive)

Param item = "Nc1c(C(=O)Nc2cccc3ncccc23)sc2nc3c(cc12)CN(Cc1ccccc1)CC3" ; retrieve measured growth. 67.7% (inactive)

Param item = "COc1ccc(/C=C(/C(=O)N2CCNCC2)c2cc(OC)c(OC)c(OC)c2)cc1O" ; retrieve measured growth. 49.9% (inactive)

Param item = "NC(=O)c1ccccc1OCC(=O)Nc1ccc(Cl)c(Cl)c1" ; retrieve measured growth. 104% (inactive)

###

Tested on: SK-MEL-2 melanoma
Experiment: NCI-60 one-dose screen, 48 h (100 = growth as untreated, 0 = no growth, -100 = all killed)
Settings: 10 µM unless noted
Procedure: Growth inhibition of the SK-MEL-2 human tumor cell line is measured as a screen for anti-cancer activity. Cells are grown in 96 well plates and exposed to the test compound for 48 hours. Compounds are tested at a single concentration, which is 10^-5 M for most compounds. The reported endpoint is percent growth (GI% or GIPRCNT), where numbers from 0 - 100% represent growth inhibition, and numbers from -100% - 0 represent cell death. For example, a value of 40 represents 60% growth inhibition. […]
The panel holds about 83,000 compounds, 20% with a hit somewhere; the sample as a whole holds those more often.
With a cut-off of 90%, any growth strictly below it is called Met; any growth meeting it or above is called Not met.

Solved cases (3 shown):
# compound, tested_target, qualitative_label
data = [
    ("COCCn1cc(-c2nc(-c3cn(CCOC)c4ncccc34)cs2)c2cc(F)ccc21", "SK-MEL-2 melanoma", "Met"),
    ("COc1ccc(CN2C(=O)OC(C)(COC(C)=O)C2=O)cc1 (centres undefined)", "SK-MEL-2 melanoma", "Not met"),
    ("COc1cc(/C=C/C(=O)N2CCN(C(=O)c3cc(OC)c(OC)c(OC)c3)CC2)ccc1OCCCOc1cc2c(cc1OC)C(=O)N1CCC[C@H]1C=N2", "SK-MEL-2 melanoma", "Met"),
]

Check if growth falls below 90% for "O=C(NCc1ccc(Cn2c(=O)sn(-c3ccccc3)c2=O)cc1)OCc1ccc2cccc(O)c2n1" . Met

Check if growth falls below 90% for "O=C(OCc1ccc2c(Cl)cc(Cl)c(O)c2n1)N1CCN(C(=O)c2cc3ccccc3[nH]2)CC1" . Met

Check if growth falls below 90% for "COc1ccc(C/C(C)=C(\c2ccc(O)cc2)c2ccc(OCCN3CCCCC3)cc2)cc1" . Not met

Check if growth falls below 90% for "Nc1ccc(Br)cc1C(F)(F)F" . Not met

###

System: A498 renal
Assay: NCI-60 one-dose screen, 48 h
Conditions: 10 µM unless noted
The panel holds about 83,000 compounds, 20% with a hit somewhere; the sample as a whole holds those more often. Activity calls are given as the source filed them. Rule for the calls: active = growth percent below 10; inactive = the rest.
# valid calls are active, inactive; nothing else

# compound, tested_target, qualitative_label
records = [
    ("Cc1nc2ccccc2c(/C=C/c2ccc(F)cc2)c1C(=O)/C=C/c1ccccc1", "A498 renal", "inactive"),
    ("CNC(=O)NCC1OC(n2cnc3c(NC(=O)Nc4ccccc4)ncnc32)C2OC(=O)CC12 (centres undefined)", "A498 renal", "inactive"),
    ("CNCC[C@H](Oc1cccc2ccccc12)c1cccs1", "A498 renal", "inactive"),
]

Which result was noted for this compound in the test: "COc1ccc(-c2cc(-c3cccnc3)nc3sc4c(N)c(C(C)=O)c(-c5ccccc5)nc4c23)cc1OC" inactive

Which result was noted for this compound in the test: N#CC1=C(N)Oc2c(sc3c(F)cccc23)C1c1ccc([N+](=O)[O-])cc1 (centres undefined) active

Which result was noted for this compound in the test: C=C(C)[C@@H]1CC[C@]2(COC3CCCCO3)CC[C@]3(C)[C@H](CC[C@@H]4[C@@]5(C)C=C(C=O)C(=O)C(C)(C)[C@@H]5CC[C@]43C)[C@@H]12 (some centres undefined) active

Which result was noted for this compound in the test: "CSc1ccc2c3c(n(C[C@H](O)CO)c(=O)c2c1)-c1ccccc1C3=O" inactive

Which result was noted for this compound in the test: "Nc1[nH]nc2nc(-c3ccccc3)n3c4ccccc4nc3c12" inactive

Which result was noted for this compound in the test: "CCOC(=O)c1c(C)nc2c(c1N)C(=O)C(=O)N2Cc1ccc(OC)cc1" inactive

###

Tested on: NCI-H460 lung
Test: NCI-60 one-dose screen, 48 h
Settings: 10 µM unless noted
The panel holds about 83,000 compounds, 20% with a hit somewhere; the sample as a whole holds those more often. Calls of active or inactive are those of the source. Rule for the calls: active = growth percent below 10; inactive = the rest.
# valid calls are active, inactive; nothing else

Which result was noted for this compound in the test: "O=S(=O)(N=C1C(Cl)=C(Cl)C(=NS(=O)(=O)c2ccccc2)C(Cl)=C1Cl)c1ccccc1" inactive

###

Test system: DU-145 prostate
Assay: NCI-60 one-dose screen, 48 h (100 = growth as untreated, 0 = no growth, -100 = all killed)
Conditions: 10 µM unless noted
The panel holds about 83,000 compounds, 20% with a hit somewhere; the sample as a whole holds those more often.
The compounds listed here are annotated with their growth.
Numbers only; they are read as %.

Solved entries (count: 6):
# compound, property_name, reading
rows = [
    ("Cc1ccc(S(=O)(=O)OCC#CCOS(=O)(=O)c2ccc(C)cc2)cc1", "growth", 52.2),
    ("COc1cc(N2C(=O)[C@H](Cl)C2c2ccc(SC)cc2)cc(OC)c1OC (stereo not given in full)", "growth", 7.66),
    ("Cc1cccc(-c2nc(C(C)C)sc2-c2ccnc(NCCCNS(=O)(=O)c3ccc(Cl)cc3)c2)c1", "growth", 78.2),
    ("CN(C)Cc1ccc(NC(=O)c2cncc(C#Cc3cnc(N)c4ncccc34)c2)cc1C(F)(F)F", "growth", 64.1),
    ("CCCN(CCSSCCNc1nc(N(C)O)nc(N(C)O)n1)c1nc(N(C)O)nc(N(C)O)n1", "growth", 54.4),
    ("COc1cc2ncnc(Nc3ccc(F)c(Cl)c3)c2cc1OCC(=O)N1CCOCC1", "growth", 57.3),
]

Param item = O=C1CCC(C(=O)N/N=C/c2cc(F)ccc2F)N1 (stereo not given) ; retrieve measured growth. 110

Param item = "N#Cc1c(-c2ccccc2)cc(-c2ccccc2)n(CCCCC(=O)NO)c1=O" ; retrieve measured growth. 20.2

Param item = "CNCCCNc1nc2ccccc2c2c(=O)c3cc(Cl)ccc3sc12" ; retrieve measured growth. -8.94

Param item = "Cc1ccc(NC(=O)c2cc3ccccc3cc2O)c(C)c1" ; retrieve measured growth. 96.3
